Listed below: melting temperature values for each entry.
Test system: HeLa Kyoto
Assay: melting temperature (median over replicates), in situ; higher = more thermally stable
Settings: cell cycle stage: mitosis
Could you give me the number in °C? Just the number is fine.

>>> value_measured("MADRDSGSEQGGAALGSGGSLGHPGSGSGSGGGGGGGGGGGGSGGGGGGAPGGLQHETQELASKRVDIQNKRFYLDVKQNAKGRFLKIAEVGAGGNKSRLTLSMSVAVEFRDYLGDFIEHYAQLGPSQPPDLAQAQDEPRRALKSEFLVRENRKYYMDLKENQRGRFLRIRQTVNRGPGLGSTQGQTIALPAQGLIEFRDALAKLIDDYGVEEEPAELPEGTSLTVDNKRFFFDVGSNKYGVFMRVSEVKPTYRNSITVPYKVWAKFGHTFCKYSEEMKKIQEKQREKRAACEQLHQQQQQQQEETAAATLLLQGEEEGEED [PURA]")
56.5

Here's the next entry for you.
The recorded melting temperature for entry MAAAELADTQLMLGVGLIEKDTNGEVLWVWCYPSTTATLRNLLLRKCCLTDENKLLHPFVFGQYRRTWFYITIIEVPDSSILKKVTHFSIVLTAKDFNPEKYAAFTRILCRMYLKHGSPVKMMESYIAVLTKGICQSEENGSFLSKDFDARKAYPAGSIKDIVSQFGMETVILHTALMLKKRIVVYHPKIEAVQEFTRTLPALVWHRQDWTILHSYVHLNADELEALQMCTGYVAGFVDLEVSNRPDLYDVFVNLAESEITIAPLAKEAMAMGKLHKEMGQLIVQSAEDPEKSESQVIQDIALKTREIFTNLAPFSEVSADGEKRVLNLEALKQKRFPPATENFLYHLAAAEQMLKI [FAM45BP] equals 50.5

###

Test system: HeLa Kyoto
Test: melting temperature (median over replicates), in situ; higher = more thermally stable
Conditions: cell cycle stage: mitosis
assay readout: melting temperature

Worked cases, melting temperature given:
>>> value_measured("MLCRLGGRWLRPLPALQLWARDLPLAPVPTSGAKRPTLPVWAVAPVSAVHANGWYEALAASSPVRVAEEVLLGVHAATGLPWWGSILLSTVALRGAVTLPLAAYQHYILAKVENLQPEIKTIARHLNQEVAVRANQLGWSKRDARLTYLKNMRRLISELYVRDNCHPFKATVLVWIQLPMWIFMSFALRNLSTGAAHSEGFSVQEQLATGGILWFPDLTAPDSTWILPISVGVINLLIVEICALQKIGMSRFQTYITYFVRAMSVLMIPIAATVPSSIVLYWLCSSFVGLSQNLLLRSPGFRQLCRIPSTKSDSETPYKDIFAAFNTKFISRK [COX18]")
"57.1 °C"
>>> value_measured("MTTSQKHRDFVAEPMGEKPVGSLAGIGEVLGKKLEERGFDKAYVVLGQFLVLKKDEDLFREWLKDTCGANAKQSRDCFGCLREWCDAFL [BANF1]")
"52.2 °C"
>>> value_measured("MAAARPSLGRVLPGSSVLFLCDMQEKFRHNIAYFPQIVSVAARMLKVARLLEVPVMLTEQYPQGLGPTVPELGTEGLRPLAKTCFSMVPALQQELDSRPQLRSVLLCGIEAQACILNTTLDLLDRGLQVHVVVDACSSRSQVDRLVALARMRQSGAFLSTSEGLILQLVGDAVHPQFKEIQKLIKEPAPDSGLLGLFQGQNSLLH [ISOC2]")
"54.9 °C"

Query MADDLGDEWWENQPTGAGSSPEASDGEGEGDTEVMQQETVPVPVPSEKTKQPKECFLIQPKERKENTTKTRKRRKKKITDVLAKSEPKPGLPEDLQKLMKDYYSSRRLVIELEELNLPDSCFLKANDLTHSLSSYLKEICPKWVKLRKNHSEKKSVLMLIICSSAVRALELIRSMTAFRGDGKVIKLFAKHIKVQAQVKLLEKRVVHLGVGTPGRIKELVKQGGLNLSPLKFLVFDWNWRDQKLRRMMDIPEIRKEVFELLEMGVLSLCKSESLKLGLF [CMSS1] yields melting temperature of 50.3 °C

Data point: MAAAAPDSRVSEEENLKKTPKKKMKMVTGAVASVLEDEATDTSDSEGSCGSEKDHFYSDDDAIEADSEGDAEPCDKENENDGESSVGTNMGWADAMAKVLNKKTPESKPTILVKNKKLEKEKEKLKQERLEKIKQRDKRLEWEMMCRVKPDVVQDKETERNLQRIATRGVVQLFNAVQKHQKNVDEKVKEAGSSMRKRAKLISTVSKKDFISVLRGMDGSTNETASSRKKPKAKQTEVKSEEGPGWTILRDDFMMGASMKDWDKESDGPDDSRPESASDSDT [RRP15] ; melting temperature = 54.2 °C

The reported value for MAASEAAVVSSPSLKTDTSPVLETAGTVAAMAATPSARAAAAVVAAAARTGSEARVSKAALATKLLSLSGVFAVHKPKGPTSAELLNRLKEKLLAEAGMPSPEWTKRKKQTLKIGHGGTLDSAARGVLVVGIGSGTKMLTSMLSGSKRYTAIGELGKATDTLDSTGRVTEEKPYDKITQEDIEGILQKFTGNIMQVPPLYSALKKDGQRLSTLMKRGEVVEAKPARPVTVYSISLQKFQPPFFTLDVECGGGFYIRSLVSDIGKELSSCANVLELTRTKQGPFTLEEHALPEDKWTIDDIAQSLEHCSSLFPAELALKKSKPESNEQVLSCEYITLNEPKREDDVIKTC [TRUB1] in terms of melting temperature is 50.2 °C

###

Each record here notes measured solubility change mitosis (log2).
System: HeLa Kyoto
Assay: solubility change mitosis vs G1/S (difference of NP-40 vs SDS log2 ratios) (log2 ratio difference); higher = more soluble in mitosis
// response body must contain only the number

>>> value_measured("MADSERLSAPGCWAACTNFSRTRKGILLFAEIILCLVILICFSASTPGYSSLSVIEMILAAIFFVVYMCDLHTKIPFINWPWSDFFRTLIAAILYLITSIVVLVERGNHSKIVAGVLGLIATCLFGYDAYVTFPVRQPRHTAAPTDPADGPV [PLP2]")
-0.163

Noted for MSMILSASVIRVRDGLPLSASTDYEQSTGMQECRKYFKMLSRKLAQLPDRCTLKTGHYNINFISSLGVSYMMLCTENYPNVLAFSFLDELQKEFITTYNMMKTNTAVRPYCFIEFDNFIQRTKQRYNNPRSLSTKINLSDMQTEIKLRPPYQISMCELGSANGVTSAFSVDCKGAGKISSAHQRLEPATLSGIVGFILSLLCGALNLIRGFHAIESLLQSDGDDFNYIIAFFLGTAACLYQCYLLVYYTGWRNVKSFLTFGLICLCNMYLYELRNLWQLFFHVTVGAFVTLQIWLRQAQGKAPDYDV [SEC22A] : its solubility change mitosis (log2) reads -0.0544

The sequence listed as MATGDLKRSLRNLEQVLRLLNYPEEVDCVGLIKGDPAASLPIISYSFTSYSPYVTELIMESNVELIAKNDLRFIDAVYKLLRDQFNYKPILTKKQFIQCGFAEWKIQIVCDILNCVMKKHKELSSLQKIPSQQRKKISSGKSEPPLGNEKISAEAVGVDISGRFMTSGKKKAVVIRHLYNEDNVDISEDTLSPITDVNEAVDVSDLNATEIKMPEVKVPEIKAEQQDVNVNPEITALQTMLAECQENLKKLTSIEKRLDCLEQKMKGKVMVDENTWTNLLSRVTLLETEMLLSKKNDEFIEFNEVSEDYASCSDMDLLNPHRKSEVERPASIPLSSGYSTASSDSTPRASTVNYCGLNEISEETTIQKMERMKKMFEETAELLKCPNHYL [CEP44] has a reported solubility change mitosis (log2) of -0.26

###

Test system: HeLa Kyoto
Experiment: solubility in G1/S (NP-40 vs SDS abundance) (log2 ratio); higher = more soluble
Conditions: cell cycle stage: G1/S
assay readout: solubility in G1/S (log2)

>>> value_measured("MNSVGEACTDMKREYDQCFNRWFAEKFLKGDSSGDPCTDLFKRYQQCVQKAIKEKEIPIEGLEFMGHGKEKPENSS [TRIAP1]")
-0.88
>>> value_measured("MSWIPFKIGQPKKQIVPKTVERDFEREYGKLQQLEEQTRRLQKDMKKSTDADLAMSKSAVKISLDLLSNPLCEQDQDLLNMVTALDTAMKRMDAFNQEKVNQIQKTVIEPLKKFGSVFPSLNMAVKRREQALQDYRRLQAKVEKYEEKEKTGPVLAKLHQAREELRPVREDFEAKNRQLLEEMPRFYGSRLDYFQPSFESLIRAQVVYYSEMHKIFGDLSHQLDQPGHSDEQRERENEAKLSELRALSIVADD [BIN3]")
0.418
>>> value_measured("MFKKFDEKENVSNCIQLKTSVIKGIKNQLIEQFPGIEPWLNQIMPKKDPVKIVRCHEHIEILTVNGELLFFRQREGPFYPTLRLLHKYPFILPHQQVDKGAIKFVLSGANIMCPGLTSPGAKLYPAAVDTIVAIMAEGKQHALCVGVMKMSAEDIEKVNKGIGIENIHYLNDGLWHMKTYK [MCTS1]")
0.267
>>> value_measured("MATVGAPRHFCRCACFCTDNLYVARYGLHVRFRGEQQLRRDYGPILRSRGCVSAKDFQQLLAELEQEVERRQRLGQESAARKALIASSYHPARPEVYDSLQDAALAPEFLAVTEYSVSPDADLKGLLQRLETVSEEKRIYRVPVFTAPFCQALLEELEHFEQSDMPKGRPNTMNNYGVLLHELGLDEPLMTPLRERFLQPLMALLYPDCGGGRLDSHRAFVVKYAPGQDLELGCHYDNAELTLNVALGKVFTGGALYFGGLFQAPTALTEPLEVEHVVGQGVLHRGGQLHGARPLGTGERWNLVVWLRASAVRNSLCPMCCREPDLVDDEGFGDGFTREEPATVDVCALT [OGFOD2]")
0.182
>>> value_measured("MARACLQAVKYLMFAFNLLFWLGGCGVLGVGIWLAATQGSFATLSSSFPSLSAANLLIITGAFVMAIGFVGCLGAIKENKCLLLTFFLLLLLVFLLEATIAILFFAYTDKIDRYAQQDLKKGLHLYGTQGNVGLTNAWSIIQTDFRCCGVSNYTDWFEVYNATRVPDSCCLEFSESCGLHAPGTWWKAPCYETVKVWLQENLLAVGIFGLCTALVQILGLTFAMTMYCQVVKADTYCA [TSPAN4]")
-0.165

Query MASGNARIGKPAPDFKATAVVDGAFKEVKLSDYKGKYVVLFFYPLDFTFVCPTEIIAFSNRAEDFRKLGCEVLGVSVDSQFTHLAWINTPRKEGGLGPLNIPLLADVTRRLSEDYGVLKTDEGIAYRGLFIIDGKGVLRQITVNDLPVGRSVDEALRLVQAFQYTDEHGEVCPAGWKPGSDTIKPNVDDSKEYFSKHN [PRDX2] yields solubility in G1/S (log2) of 0.354

The recorded solubility in G1/S (log2) for entry MAAEEKDPLSYFAAYGSSSSGSSDEEDNIEPEETSRRTPDPAKSAGGCRNKAEKRLPGPDELFRSVTRPAFLYNPLNKQIDWERHVVKAPEEPPKEFKIWKSNYVPPPETYTTEKKPPPPELDMAIKWSNIYEDNGDDAPQNAKKARLLPEGEETLESDDEKDEHTSKKRKVEPGEPAKKKK [C1ORF52] equals 0.074
